assay.name: in vitro
condition.set: human, 50% human serum, Inactivation Ratio
reported.metric: fraction unbound at 2 h
One number for each entry.

So what's the measured fraction unbound at 2 h for this one? CCn1cc(C(=O)O)c(=O)c2ccc(C)nc21
0.387

----------
assay.name: inactivation ratio by human serum protein
condition.set: 10% human serum, 3.1 mcg/ml, 37° C.
reported.metric: fraction unbound at 2 h
Give bare numbers.

So what's the measured fraction unbound at 2 h for this one? CC1CCc2c(N3CCNCC3)ccc3c(=O)c(C(=O)O)cn1c23 (stereo not shown)
0.918

----------
System: Pseudomonas aeruginosa E-2
assay.name: antimicrobial activity, serial dilution method on agar plate
Type: cell-based
condition.set: E2, read-out: Minimum Inhibitory Concentration, inoculum 1 × 10^6 cells/ml
Structures can show the parent of a compound that is named as a salt.
reported.metric: MIC (µg/mL)
Numbers only, in µg/mL.

>>> measured_value("CC1CCc2c(N3CCNCC3)c(Cl)cc3c(=O)c(C(=O)O)cn1c23 (centres unmarked) [Compound T, hydrochloride hydrate]")
3.1

Give MIC for each listed item.
1. CC1CCc2c(N3CCNCC3)ccc3c(=O)c(C(=O)O)cn1c23 (centres unmarked) [A]
2. CC1Cc2c(N3CCNCC3)c(Cl)cc3c(=O)c(C(=O)O)cn1c23 (centres unmarked) [Compound Y]

[6.3, 3.1]

Field: MIC (Pseudomonas aeruginosa E-2). Entry: CC1Cc2c(N3CCNCC3)ccc3c(=O)c(C(=O)O)cn1c23 (centres unmarked) [C]
3.1

----------
assay.name: inactivation ratio by human serum protein
condition.set: 100% human serum, 3.1 mcg/ml, 37° C.
reported.metric: fraction unbound at 2 h

So what's the measured fraction unbound at 2 h for this one? CC1CCc2c(N3CCNCC3)ccc3c(=O)c(C(=O)O)cn1c23 (stereo not shown)
1

----------
assay.name: in vitro
condition.set: human, 20% human serum
reported.metric: fraction unbound at 2 h
Numbers only.

So what's the measured fraction unbound at 2 h for this one? CCn1cc(C(=O)O)c(=O)c2ccc(C)nc21
0.608

----------
Tested on: Salmonella typhi 0-901 (NCTC 8393)
assay.name: antimicrobial activity, serial dilution method on agar plate
Assay type: cell-based
condition.set: Salmonella enterica, read-out: Minimum Inhibitory Concentration, inoculum 1 × 10^6 cells/ml
reported.metric: MIC

>>> measured_value("CC1CCc2c(N3CCN(C)CC3)c(Cl)cc3c(=O)c(C(=O)O)cn1c23 (stereo not drawn)")
"≤ 0.05 µg/mL"
>>> measured_value("CC1CCc2c(N3CCN(C)CC3)c(F)cc3c(=O)c(C(=O)O)cn1c23 (stereo not drawn)")
"≤ 0.05 µg/mL"

# ---- query compound ----
Field: MIC (Salmonella typhi 0-901 (NCTC 8393)). Entry: CC1Cc2c(N3CCN(C)CC3)c(F)cc3c(=O)c(C(=O)O)cn1c23 (stereo not drawn)
≤ 0.05 µg/mL

----------
System: Serattia marcescens IFO 12648
assay.name: antimicrobial activity, serial dilution method on agar plate
Format: cell-based
condition.set: inoculum 1 × 10^6 cells/ml; read-out: Minimum Inhibitory Concentration
Procedure: The antimicrobial activity of the following test compounds on various test organisms listed below was determined by the serial dilution method on agar plate (Heart Infusion agar produced by Difco Co.) (see CHEMOTHERAPY 22, pp. 1126-1128 (1974)), and the minimum inhibitory concentrations (mcg/ml) obtained are shown in Table 1 below. […]
Can you tell me MIC for the items I'm about to list?
Answers are plain numbers, in µg/mL.

Consider the worked cases shown below.
>>> measured_value("CC1Cc2c(Cl)ccc3c(=O)c(C(=O)O)cn1c23 (stereo not shown)")
1.6
>>> measured_value("CC1Cc2c(N3CCN(C)CC3)c(F)cc3c(=O)c(C(=O)O)cn1c23 (stereo not shown)")
0.2
>>> measured_value("CC1CCc2cc(F)cc3c(=O)c(C(=O)O)cn1c23 (stereo not shown)")
0.4

So what's the measured MIC for this one? CC1CCc2c(N3CCN(C=O)CC3)c(Cl)cc3c(=O)c(C(=O)O)cn1c23 (stereo not shown)
3.1
